Target: T1, CD81 (UniProt P60033 1-236, limits assumed)
T1 construct: whole, on cells; also called CD81 receptor
T1 sequence (looked up): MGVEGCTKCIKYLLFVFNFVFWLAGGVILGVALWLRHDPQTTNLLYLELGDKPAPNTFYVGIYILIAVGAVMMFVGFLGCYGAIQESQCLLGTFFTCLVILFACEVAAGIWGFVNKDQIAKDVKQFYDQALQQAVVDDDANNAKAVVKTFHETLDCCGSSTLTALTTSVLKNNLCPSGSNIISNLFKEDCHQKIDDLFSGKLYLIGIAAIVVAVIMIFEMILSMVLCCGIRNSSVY
Test: cell ELISA;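 note: antibody binding to HuH7 cells expressing CD81 versus a CD81-negative HuH7 control line, bound antibody detected by secondary reagent, absorbance at 450 nm with 620 nm reference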
Give ELISA data for every item shown.
Give bare numbers.

[
  {
    "Binder": "CD81K13 HC 5b-hVH_1_69 / LC 1b-hVK_3_15 (antibody, V domains shown, human constant region) VH: QVQLVQSGAELVKPGSSVKVSCKASGFNFKDSYLHWVRQAPGQGLEWMGRIDTGNGNVKFDPKFQGRVTITTDESTSTAYMELSSLRSEDTAVYYCVPYGYGFHSWGQGTLVTVSS VL: EIVMTQSPATLSVSPGERATLSCRASENIYRTLAWYQQKPGQAPRLLIYGATTLADGIPARFSGSGSGTEFTLTISSLQSEDFAVYYCQHFWGTPWTFGQGTKVEIK",
    "ELISA data": 0.646
  }
]

Next binder, ELISA data to be filled in.
Can you look up the measured ELISA data of CD81K13 HC 05-hVH_1_69 / LC 06-hVK_1_39 (antibody, V domains shown, human constant region) VH: QVQLVQSGAEVKKPGSSVKVSCKASGFNFKDSYLHWVRQAPGQGLEWMGRIDTGNGNVKFDPKFQGRVTITTDESTSTAYMELSSLRSEDTAVYYCVPYGYGFHSWGQGTLVTVSS VL: DIQMTQSPSSLSASVGDRVTITCRASENIYRTLAWYQQKPGKAPKLLIYAATTLASGVPSRFSGSGSGTDFTLTISSLQPEDFGTYYCQHFWGTPWTFGQGTKVEIK for me?
0.603

// data source = patent US20200377590A1
